Assay: duplex melting temperature (HRM, EvaGreen); higher = more stable duplex
Settings: duplex concentration 5 µM; backbone: PS-PS (both strands fully phosphorothioate)
duplex melting temperature values for the sequences below.
measured.property: duplex melting temperature (°C)

• CGACATGTATGGCACAG = 55
• ACGGGTCGTTCCGTG = 58.8
• TGTCGCACCCTACTA = 56.5
• TTCGCGGTCTCCATTA = 58.1
• TACTTCCAACGTAGG = 47.2
• TTCTACATCCATCTTAATCCCA = 54.2
• GCCCGAGCATGACTGCG = 63.4
• CGGCGCGCTG = 50
• CTAAACTGTTATAGCCGG = 51.1
• AGACATCCCATACGAGCATCCA = 62.6
• CAAGCCTCGATTTTGT = 52.4
• GAGGCAGCCGCGACCTG = 68.5
• AGCTGAGCCTGCCGCC = 66
• GTGAGCAGAAGGGGTT = 56.9
• TTGTAGTTGACGTTTGTGATTTAGTGAATT = 60.3
• TATTCTGCCAATGGAAC = 50.1
• TTAACCTGCAATGGATC = 50.7

meta.source: the supplement of paper PMC9116672
